Numbers sourced from paper PMC6407917.

- subject of test: UniProtKB Q5S007
- Sequence (Q5S007 whole entry): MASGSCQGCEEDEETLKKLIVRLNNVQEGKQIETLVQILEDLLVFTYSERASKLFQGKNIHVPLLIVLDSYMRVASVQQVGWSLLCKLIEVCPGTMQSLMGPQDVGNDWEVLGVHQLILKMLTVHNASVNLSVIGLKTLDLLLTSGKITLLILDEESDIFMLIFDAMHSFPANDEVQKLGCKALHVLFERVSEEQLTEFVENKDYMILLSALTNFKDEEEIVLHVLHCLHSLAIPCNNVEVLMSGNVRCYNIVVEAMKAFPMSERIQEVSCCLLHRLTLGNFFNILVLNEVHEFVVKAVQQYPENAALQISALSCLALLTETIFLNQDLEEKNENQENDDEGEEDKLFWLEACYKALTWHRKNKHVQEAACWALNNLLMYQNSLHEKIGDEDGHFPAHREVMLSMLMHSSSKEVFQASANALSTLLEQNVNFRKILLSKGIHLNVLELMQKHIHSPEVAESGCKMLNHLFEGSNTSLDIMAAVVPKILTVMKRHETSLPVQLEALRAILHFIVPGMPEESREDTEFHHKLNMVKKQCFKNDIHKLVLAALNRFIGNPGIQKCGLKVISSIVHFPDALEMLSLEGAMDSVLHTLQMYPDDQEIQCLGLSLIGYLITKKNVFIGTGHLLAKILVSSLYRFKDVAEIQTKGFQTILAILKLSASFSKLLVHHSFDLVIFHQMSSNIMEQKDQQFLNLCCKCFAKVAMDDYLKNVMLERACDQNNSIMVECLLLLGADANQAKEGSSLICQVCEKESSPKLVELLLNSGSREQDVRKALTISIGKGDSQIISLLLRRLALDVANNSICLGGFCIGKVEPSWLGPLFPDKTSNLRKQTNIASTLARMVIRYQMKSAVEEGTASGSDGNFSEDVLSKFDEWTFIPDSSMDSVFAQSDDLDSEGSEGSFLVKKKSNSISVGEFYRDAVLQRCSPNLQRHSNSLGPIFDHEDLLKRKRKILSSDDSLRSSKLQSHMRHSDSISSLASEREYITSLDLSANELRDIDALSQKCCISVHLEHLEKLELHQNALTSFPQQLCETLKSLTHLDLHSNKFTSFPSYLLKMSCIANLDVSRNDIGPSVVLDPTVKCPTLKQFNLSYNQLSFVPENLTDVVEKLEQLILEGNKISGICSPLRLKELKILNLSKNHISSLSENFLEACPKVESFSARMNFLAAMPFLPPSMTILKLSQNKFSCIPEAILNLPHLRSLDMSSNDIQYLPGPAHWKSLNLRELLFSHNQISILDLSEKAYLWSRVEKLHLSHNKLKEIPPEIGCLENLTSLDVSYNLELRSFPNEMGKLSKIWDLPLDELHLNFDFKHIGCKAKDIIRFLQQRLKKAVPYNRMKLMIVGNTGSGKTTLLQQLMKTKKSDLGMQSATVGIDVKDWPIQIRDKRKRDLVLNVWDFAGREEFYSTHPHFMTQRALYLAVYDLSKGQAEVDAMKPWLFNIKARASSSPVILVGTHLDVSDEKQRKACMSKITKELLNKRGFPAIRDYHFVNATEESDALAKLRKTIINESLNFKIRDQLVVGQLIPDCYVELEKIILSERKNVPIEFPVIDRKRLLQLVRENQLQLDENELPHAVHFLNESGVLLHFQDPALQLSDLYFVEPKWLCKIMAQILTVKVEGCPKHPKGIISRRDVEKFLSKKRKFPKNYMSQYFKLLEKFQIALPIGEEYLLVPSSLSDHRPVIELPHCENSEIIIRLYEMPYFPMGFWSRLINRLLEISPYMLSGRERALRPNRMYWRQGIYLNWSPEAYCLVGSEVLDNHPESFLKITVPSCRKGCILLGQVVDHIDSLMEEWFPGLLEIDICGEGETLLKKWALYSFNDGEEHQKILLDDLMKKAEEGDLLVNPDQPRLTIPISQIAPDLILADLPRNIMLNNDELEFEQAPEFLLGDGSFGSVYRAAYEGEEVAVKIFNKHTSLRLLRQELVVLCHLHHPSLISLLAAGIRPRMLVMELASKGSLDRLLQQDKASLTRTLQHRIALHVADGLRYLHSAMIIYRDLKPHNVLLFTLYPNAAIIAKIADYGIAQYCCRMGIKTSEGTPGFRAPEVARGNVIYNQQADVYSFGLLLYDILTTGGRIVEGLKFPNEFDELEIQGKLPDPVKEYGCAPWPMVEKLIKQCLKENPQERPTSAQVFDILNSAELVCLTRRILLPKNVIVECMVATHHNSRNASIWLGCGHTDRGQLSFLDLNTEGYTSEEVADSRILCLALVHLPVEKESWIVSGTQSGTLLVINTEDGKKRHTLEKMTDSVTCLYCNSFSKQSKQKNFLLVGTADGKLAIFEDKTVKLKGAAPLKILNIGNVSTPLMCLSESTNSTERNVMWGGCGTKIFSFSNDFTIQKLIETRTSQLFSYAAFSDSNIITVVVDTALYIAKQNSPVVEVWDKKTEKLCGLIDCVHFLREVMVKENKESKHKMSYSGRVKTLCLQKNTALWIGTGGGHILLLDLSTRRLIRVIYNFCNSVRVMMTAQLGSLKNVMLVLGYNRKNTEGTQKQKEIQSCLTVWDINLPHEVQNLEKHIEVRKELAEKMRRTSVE
- protocol summary: biochemical
- Set-up: species or system HEK293/K-562/placenta mixed human extract; Kinobeads chemoproteomic competition binding, quantified by TMT LC-MS/MS, dose response up to 20 uM
pIC50: −log10 of the molar value.
readout label: pIC50

Query: Param item = COc1ccccc1-c1n[nH]c2nc(N[C@H]3CC[C@H](NS(=O)(=O)CCC(F)(F)F)CC3)nc(OC)c12 ; retrieve measured pIC50.
Reply: ≤ 4.70

---

- subject of test: PIM1 (Homo sapiens, UniProt P11309)
- Sequence (P11309 whole entry): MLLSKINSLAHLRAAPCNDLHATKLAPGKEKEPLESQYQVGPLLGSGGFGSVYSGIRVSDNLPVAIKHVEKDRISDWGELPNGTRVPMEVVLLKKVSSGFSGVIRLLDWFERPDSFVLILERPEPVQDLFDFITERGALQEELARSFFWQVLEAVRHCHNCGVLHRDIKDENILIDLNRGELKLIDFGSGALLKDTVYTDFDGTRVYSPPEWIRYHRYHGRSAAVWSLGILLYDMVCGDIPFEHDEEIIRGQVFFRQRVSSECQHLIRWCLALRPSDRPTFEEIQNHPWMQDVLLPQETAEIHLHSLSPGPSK
- protocol summary: biochemical
- Set-up: species or system HEK293/K-562/placenta mixed human extract; Kinobeads chemoproteomic competition binding, quantified by TMT LC-MS/MS, dose response up to 20 uM
readout label: IC50

Query: Param item = COc1nc(N[C@H]2CC[C@H](NS(=O)(=O)CC(C)C)CC2)nc2[nH]nc(N3CCOC[C@H]3C)c12 [compound 39] ; retrieve measured IC50.
Reply: ≥ 20 µM
